Data credit: the supplement of paper PMC8728848

Below, each entry is listed with its recorded glycan array binding signal (z-score).
molecular target: Gal(a1-4)GlcNAc; test: glycan array binding signal (z-score within array); higher = stronger binding; conditions: glycan notation: IUPAC condensed, linker removed
Many of the other results were omitted from the sample, so the strongest signals are more common in it than they were.
Note: the reply should be a number with no unit written.

Example entries and their recorded answers appear below.
binder	glycan array binding signal (z-score)
UEA-I (Ulex europaeus), P22972 (protein) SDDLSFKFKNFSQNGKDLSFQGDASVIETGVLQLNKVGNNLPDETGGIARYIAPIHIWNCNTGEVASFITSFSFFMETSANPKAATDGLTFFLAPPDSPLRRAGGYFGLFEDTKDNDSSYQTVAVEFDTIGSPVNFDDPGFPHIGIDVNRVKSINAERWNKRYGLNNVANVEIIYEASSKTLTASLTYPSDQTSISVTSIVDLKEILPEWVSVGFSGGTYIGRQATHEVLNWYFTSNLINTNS	-0.168
LysMD3 (Homo sapiens), Q7Z3D4 (protein) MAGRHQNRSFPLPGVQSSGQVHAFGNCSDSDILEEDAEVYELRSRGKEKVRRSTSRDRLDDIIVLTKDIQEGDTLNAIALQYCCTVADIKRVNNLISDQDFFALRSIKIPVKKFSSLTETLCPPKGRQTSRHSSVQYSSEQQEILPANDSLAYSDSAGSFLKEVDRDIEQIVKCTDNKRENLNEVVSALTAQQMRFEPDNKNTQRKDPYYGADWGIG	0.113
AAL (Aleuria aurantia), P18891 (protein) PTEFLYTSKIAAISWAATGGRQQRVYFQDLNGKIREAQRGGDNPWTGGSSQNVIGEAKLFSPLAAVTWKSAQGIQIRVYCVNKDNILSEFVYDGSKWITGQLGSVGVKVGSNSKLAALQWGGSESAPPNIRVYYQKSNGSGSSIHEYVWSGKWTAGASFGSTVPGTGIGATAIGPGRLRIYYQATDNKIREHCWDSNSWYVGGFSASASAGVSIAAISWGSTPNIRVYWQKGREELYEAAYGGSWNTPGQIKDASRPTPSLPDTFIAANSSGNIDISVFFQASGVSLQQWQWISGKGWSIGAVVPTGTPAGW	-0.498
TAL6-4LysM (Trichoderma atroviride) (protein) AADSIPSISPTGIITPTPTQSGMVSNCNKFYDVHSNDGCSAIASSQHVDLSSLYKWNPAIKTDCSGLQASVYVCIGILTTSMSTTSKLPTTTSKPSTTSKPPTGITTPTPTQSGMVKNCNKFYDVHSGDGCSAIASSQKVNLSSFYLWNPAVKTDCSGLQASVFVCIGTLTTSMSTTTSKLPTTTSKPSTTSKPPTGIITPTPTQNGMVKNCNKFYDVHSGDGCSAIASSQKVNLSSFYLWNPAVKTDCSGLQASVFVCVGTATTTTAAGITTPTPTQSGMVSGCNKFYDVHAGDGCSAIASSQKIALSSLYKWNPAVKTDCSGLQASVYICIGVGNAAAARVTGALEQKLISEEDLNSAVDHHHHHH	2.59

API: the following record is the query input.
QUERY: Please list glycan array binding signal (z-score) recorded for the binder HPAIIITrx (Helix pomatia), Q1KM18 (protein) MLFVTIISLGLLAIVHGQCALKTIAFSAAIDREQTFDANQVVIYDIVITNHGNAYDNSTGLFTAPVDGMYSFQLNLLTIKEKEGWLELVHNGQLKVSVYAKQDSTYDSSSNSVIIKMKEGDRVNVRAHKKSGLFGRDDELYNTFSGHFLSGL
RESULT: -0.387
